- assay procedure: Antiproliferative activity against mouse J774A1 cells assessed as cell viability at 10 ug/ml after 72 hrs by MTT assay relative to LPS
- Assay type: cell-based, J774.A1
The following compounds are shown together with reported viability at 72 h, 10 ug/ml values.

>  <compound>
O=C(/C=C/c1ccc(O)c(O)c1)O[C@H]1[C@H](O[C@@H]2OC[C@](O)(CO)[C@H]2O)[C@@H](O[C@@H]2OC[C@@H](O)[C@H](O)[C@H]2O)[C@H](OCCc2ccc(O)c(O)c2)O[C@@H]1CO [FUCATOSIDE B]

>  <endpoint unit>
%

>  <viability at 72 h, 10 ug/ml>
96.1

$$$$
>  <compound>
Sc1ncnc2nc[nH]c12 [MERCAPTOPURINE ANHYDROUS]

>  <endpoint unit>
%

>  <viability at 72 h, 10 ug/ml>
38

$$$$
>  <compound>
C[C@@H]1O[C@@H](O[C@H]2[C@H](OCCc3ccc(O)c(O)c3)O[C@H](CO)[C@@H](OC(=O)/C=C/c3ccc(O)c(O)c3)[C@@H]2O)[C@H](O)[C@H](O)[C@H]1O [PARVIFLOROSIDE A]

>  <endpoint unit>
%

>  <viability at 72 h, 10 ug/ml>
95.9

$$$$
>  <compound>
O=C(/C=C/c1ccc(O)c(O)c1)O[C@H]1[C@H](O[C@@H]2OC[C@@](O)(CO)[C@H]2O)[C@@H](O[C@@H]2OC[C@@](O)(CO)[C@H]2O)[C@H](OCCc2ccc(O)c(O)c2)O[C@@H]1CO [FUCATOSIDE C]

>  <endpoint unit>
%

>  <viability at 72 h, 10 ug/ml>
96.8

$$$$
>  <compound>
O=C(/C=C/c1ccc(O)c(O)c1)O[C@H]1[C@H](O)[C@@H](O[C@@H]2OC[C@](O)(CO)[C@H]2O)[C@H](OCCc2ccc(O)c(O)c2)O[C@@H]1CO [FUCATOSIDE A]

>  <endpoint unit>
%

>  <viability at 72 h, 10 ug/ml>
95.9

$$$$

---

- assay procedure: Antiproliferative activity against mouse J774A1 cells assessed as cell viability at 100 ug/ml after 72 hrs by MTT assay relative to LPS
- Type: cell-based, J774.A1
The following compounds are shown together with reported viability at 72 h, 100 ug/ml values.

>  <compound>
O=C(/C=C/c1ccc(O)c(O)c1)O[C@H]1[C@H](O)[C@@H](O[C@@H]2OC[C@](O)(CO)[C@H]2O)[C@H](OCCc2ccc(O)c(O)c2)O[C@@H]1CO [FUCATOSIDE A]

>  <viability at 72 h, 100 ug/ml>
95%

$$$$
>  <compound>
C[C@@H]1O[C@@H](O[C@H]2[C@H](OCCc3ccc(O)c(O)c3)O[C@H](CO)[C@@H](OC(=O)/C=C/c3ccc(O)c(O)c3)[C@@H]2O)[C@H](O)[C@H](O)[C@H]1O [PARVIFLOROSIDE A]

>  <viability at 72 h, 100 ug/ml>
96.9%

$$$$
>  <compound>
Sc1ncnc2nc[nH]c12 [MERCAPTOPURINE ANHYDROUS]

>  <viability at 72 h, 100 ug/ml>
31.8%

$$$$

---

The following compounds are shown together with reported inhibition at 1 µg/mL values.
- System: J774.A1
- assay procedure: Antiinflammatory activity in mouse J774A1 cells assessed as inhibition of LPS-induced NO release at 1 ug/ml after 24 hrs treated 1 hr before LPS challenge relative to LPS
- Assay type: functional

>  <compound>
O=C(/C=C/c1ccc(O)c(O)c1)O[C@H]1[C@H](O[C@@H]2OC[C@](O)(CO)[C@H]2O)[C@@H](O[C@@H]2OC[C@@H](O)[C@H](O)[C@H]2O)[C@H](OCCc2ccc(O)c(O)c2)O[C@@H]1CO [FUCATOSIDE B]

>  <inhibition at 1 µg/mL (%)>
13.7

$$$$
>  <compound>
O=C(/C=C/c1ccc(O)c(O)c1)O[C@H]1[C@H](O)[C@@H](O[C@@H]2OC[C@](O)(CO)[C@H]2O)[C@H](OCCc2ccc(O)c(O)c2)O[C@@H]1CO [FUCATOSIDE A]

>  <inhibition at 1 µg/mL (%)>
13.3

$$$$
>  <compound>
O=C(/C=C/c1ccc(O)c(O)c1)O[C@H]1[C@H](O[C@@H]2OC[C@@](O)(CO)[C@H]2O)[C@@H](O[C@@H]2OC[C@@](O)(CO)[C@H]2O)[C@H](OCCc2ccc(O)c(O)c2)O[C@@H]1CO [FUCATOSIDE C]

>  <inhibition at 1 µg/mL (%)>
4.4

$$$$
>  <compound>
C[C@@H]1O[C@@H](O[C@H]2[C@H](OCCc3ccc(O)c(O)c3)O[C@H](CO)[C@@H](OC(=O)/C=C/c3ccc(O)c(O)c3)[C@@H]2O)[C@H](O)[C@H](O)[C@H]1O [PARVIFLOROSIDE A]

>  <inhibition at 1 µg/mL (%)>
3.8

$$$$

---

- assay procedure: Antiproliferative activity against mouse J774A1 cells assessed as cell viability at 100 ug/ml after 72 hrs by MTT assay relative to LPS
- Assay type: cell-based, J774.A1

>  <molecule>
O=C(/C=C/c1ccc(O)c(O)c1)O[C@H]1[C@H](O[C@@H]2OC[C@@](O)(CO)[C@H]2O)[C@@H](O[C@@H]2OC[C@@](O)(CO)[C@H]2O)[C@H](OCCc2ccc(O)c(O)c2)O[C@@H]1CO [FUCATOSIDE C]

>  <viability at 72 h, 100 ug/ml>
94.3%

$$$$
>  <molecule>
O=C(/C=C/c1ccc(O)c(O)c1)O[C@H]1[C@H](O[C@@H]2OC[C@](O)(CO)[C@H]2O)[C@@H](O[C@@H]2OC[C@@H](O)[C@H](O)[C@H]2O)[C@H](OCCc2ccc(O)c(O)c2)O[C@@H]1CO [FUCATOSIDE B]

>  <viability at 72 h, 100 ug/ml>
94.4%

$$$$
